Source listed as PubChem BioAssay AID1159580.

Test: chemical genetic growth profiling, strain panel (AID 1159580);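 also: tested at 20 µM; growth read once vehicle control cultures reached saturation at 30 °C; 1 = growth at the plate median or of vehicle wells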
Conditions: S. cerevisiae deletion strains, growth OD, locus YDL134C, strain PPH21
Among all 5,500 compounds or so, about 2,000 (36%) were called active. About 18% were inconclusive and are not listed. Rule as the data show it: active = normalized growth mostly below about 0.91 (no sharp cut-off); inconclusive = no clear call, values can overlap the other calls; inactive = mostly above about 0.92. The list shows a part of the results.
Classes to choose from: active, inactive

// below: answered molecules
Cc1oncc1C(=O)Nc1ccc(C(F)(F)F)cc1 :: inactive
O=c1oc2ccccc2cc1O :: inactive
C=NC(C(=O)NC1C(=O)N2C1SC(C)(C)C2C(=O)O)c1ccccc1 (stereo not given) :: inactive
NC(=O)NC1NC(=O)NC1=O (stereo not given) :: inactive

Now look at this one.
Q: State the result this test recorded for O=c1oc2ccccc2cc1[N+](=O)[O-] .
Result: active

###

Experiment: chemical genetic growth profiling, strain panel (AID 1159580)
Settings: S. cerevisiae deletion strains, growth OD, locus YAL013W, strain DEP1, active compounds read low
In all, about 5,500 compounds went through this assay and about 2,000 (36%) were called active. Another 18% or so got no clear call; they are omitted. The list shows a part of the results.
This section presents compounds with their documented normalized growth values.
Enter the number alone.

Example entries and their recorded answers appear below.
O=C(O)/C=C/C(O)c1ccc(Cl)cc1 (stereo not drawn) :: 0.986
CC(=O)C1CC[C@H]2C3CC[C@H]4C[C@H](O)CC[C@]4(C)C3CC[C@]12C (stereo partly drawn) :: 1
CC(=O)OC1CC(O)C(C)(C)C2CC(=O)C3(C)C(CCC4(C)C(c5ccoc5)OC(=O)C5OC543)C12C (stereo not drawn) :: 0.996

Documented normalized growth of CC(N)c1cccc(Cl)c1Cl (stereo not drawn) : 1.01

Documented normalized growth of CC(=O)[C@H]1CCC2C3CC[C@H]4C[C@H](O)CC[C@]4(C)C3CC[C@@]21C (stereo partly drawn) : 1.01

Documented normalized growth of C[C@]12CCC3C(CC[C@H]4C[C@@H](O)CC[C@]34C)C1CC[C@@H]2O (stereo partly drawn) : 1

Documented normalized growth of CC(C)c1nc(N(C)S(C)(=O)=O)nc(-c2ccc(F)cc2)c1/C=C/[C@@H](O)C[C@@H](O)CC(=O)O : 0.988

Documented normalized growth of COc1cscc1C(N)=O : 1.01

###

Test: chemical genetic growth profiling, strain panel (AID 1159580)
Settings: S. cerevisiae deletion strains, growth OD, locus YDR335W, strain msn5, active compounds read low
Among all 5,500 compounds or so, about 2,000 (36%) were called active. Another 18% or so got no clear call; they are omitted. This is one part of the list.
This section presents compounds with their documented normalized growth values.
Enter the number alone.

Documented normalized growth of C[C@]12CCC3c4ccc(OC(=O)c5ccccc5)cc4CCC3C1CCC2=O (stereo not given in full) : 0.982

Documented normalized growth of COP(=S)(OC)Oc1ccc([N+](=O)[O-])cc1 : 1.01

Documented normalized growth of COP(=S)(OC)Oc1ccc(Sc2ccc(OP(=S)(OC)OC)cc2)cc1 : 1.01

Documented normalized growth of CC(=O)Oc1ccc2c(c1)CCC1C2CC[C@]2(C)C(=O)CCC12 (stereo not given in full) : 0.992

Documented normalized growth of O=c1oc2ccccc2cc1O : 1

###

This section presents compounds with their documented normalized growth values.
Experiment: chemical genetic growth profiling, strain panel (AID 1159580)
Details: S. cerevisiae deletion strains, growth OD, locus YPL240C, strain hsp82, active compounds read low
About 2,000 (36%) of roughly 5,500 compounds were called active. About 18% were inconclusive and are not listed. Some of the results follow.
Enter the number alone.

NCCCCCC(=O)O :: 1.02
CC(=O)O[C@]1(C)CC[C@@]23CC1C(C)(C)[C@@H]2CC[C@H]3C :: 0.982
NC(N)=NCCCCN=C(N)N :: 1.01
COC[C@]12CN(C=O)C3[C@@H]4[C@H](OC)C1[C@]3(C1CC3(O)C(OC)C(O)C4(OC(C)=O)C1C3OC(=O)c1ccccc1)[C@@H](OC)C[C@H]2O (stereo partly specified) :: 1.01
CCC(C)C(=O)c1c(O)c(C)c2oc3c(C)c(O)c(C(=O)C(C)CC)c(O)c3c2c1O (stereo unspecified) :: 0.995
COc1ccc2c(c1)OCC(Cc1ccc(OC)c(OC)c1)C2=O (stereo unspecified) :: 0.993
CC1C/C=C/C=C/C=C/C=C/C(O[C@@H]2O[C@H](C)[C@@H](O)[C@H](N)[C@@H]2O)CC2OC(O)(CC(O)CC3OC3/C=C/C(=O)O1)CC(O)C2C(=O)O (stereo partly specified) :: 1
CC12CCC3C(=CCc4cc(O)ccc43)C1CCC2=O (stereo unspecified) :: 0.986

Documented normalized growth of C[C@]12CCC3c4ccc(O)cc4CCC3C1CCC2=O (stereo partly specified) : 1.01

Documented normalized growth of COc1ccc2c(c1)OCC(Cc1ccc(OC)c(OC(C)=O)c1)C2=O (stereo unspecified) : 0.971

Documented normalized growth of FC(F)(F)c1cccc(N2CCNCC2)c1 : 0.989

Documented normalized growth of CC(=O)Oc1c2c(c3c(c1CC=C(C)C)O[C@]14C(=C[C@@H]5CC1C(C)(C)OC4(C/C=C(\C)C(=O)O)C5=O)C3=O)OC(C)(CCC=C(C)C)C=C2 (stereo partly specified) : 0.984

Documented normalized growth of COC(=O)/C(C)=C\CC12OC(C)(C)C3CC(C=C4C(=O)c5c(OC)c6c(c(CC=C(C)C)c5OC431)OC(C)(CCC=C(C)C)C=C6)C2=O (stereo unspecified) : 1.02

Documented normalized growth of Clc1ccc(C(c2ccccc2Cl)C(Cl)Cl)cc1 (stereo unspecified) : 0.983

Documented normalized growth of C[C@@H]1CC2C3CCC4=CC(=O)C=C[C@]4(C)[C@@]3(F)[C@@H](O)C[C@]2(C)[C@@]1(O)C(=O)CO (stereo partly specified) : 0.98

Documented normalized growth of CC(=O)Oc1c2c(c(CC=C(C)C)c3c1C(=O)C1=C[C@@H]4CC5C(C)(C)OC(C/C=C(\C)C(=O)O)(C4=O)[C@@]15O3)OC(C)(CCC=C(C)C)C=C2 (stereo partly specified) : 0.978

###

Assay: chemical genetic growth profiling, strain panel (AID 1159580);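 also: tested at 20 µM; growth read once vehicle control cultures reached saturation at 30 °C; 1 = growth at the plate median or of vehicle wells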
Conditions: S. cerevisiae deletion strains, growth OD, locus YGR135W, strain pre9, active compounds read low
Among all 5,500 compounds or so, about 2,000 (36%) were called active. Inconclusive results (about 18%) are left out. The list shows a part of the results.
Classify: TRUE when normalized growth is strictly less than 1; FALSE when normalized growth is not.

CC1[C@H](C)OC(=O)CC(O)CC(O)CC(O)CCC(O)C(O)C[C@]2(O)CC(O)C(C(=O)O)C(CC(OC3O[C@H](C)[C@@H](O)[C@H](N)[C@@H]3O)/C=C/C=C/C=C/C=C/CC/C=C/C=C/[C@H](C)[C@H]1O)O2 (stereo partly specified) :: TRUE

Q: Please determine if C1N2CN3CN1CN(C2)C3 is below 1 in terms of normalized growth.
Result: TRUE

Q: Please determine if O=C(O)C1CCCNC1 (stereo unspecified) is below 1 in terms of normalized growth.
Result: FALSE

###

Experiment: chemical genetic growth profiling, strain panel (AID 1159580);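 also: tested at 20 µM; growth read once vehicle control cultures reached saturation at 30 °C; 1 = growth at the plate median or of vehicle wells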
Details: S. cerevisiae deletion strains, growth OD, locus YNL298W, strain CLA4, active compounds read low
In all, about 5,500 compounds went through this assay and about 2,000 (36%) were called active. Inconclusive results (about 18%) are left out. Some of the results follow.
This section presents compounds with their documented normalized growth values.
Enter the number alone.

Example entries and their recorded answers appear below.
CC1OC(O[C@H]2/C=C/C=C/C=C/C=C/C=C/C=C/C=C/[C@H](C)[C@@H](O)[C@@H](C)[C@H](C)OC(=O)CC(O)CC(O)CCC(O)C(O)CC(O)C[C@]3(O)C[C@H](O)C(C(=O)O)C(C2)O3)C(O)[C@H](N)C1O (some centres not stated) :: 1.01
O=C(O)C(O)C(O)C(=O)O (configuration not stated) :: 0.988
NCCCCCC(=O)O :: 1
OC[C@H]1O[C@@H](n2cnc3c(NCc4ccco4)ncnc32)[C@H](O)[C@@H]1O :: 0.995
NCCCCC(=O)O :: 0.99

Documented normalized growth of CCC(C)C(=O)c1c(O)c(C)c2oc3c(C)c(O)c(C(=O)C(C)CC)c(O)c3c2c1O (configuration not stated) : 0.972

Documented normalized growth of CC(C)(S)[C@@H](N)C(=O)O : 0.991

###

Assay: chemical genetic growth profiling, strain panel (AID 1159580);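 also: tested at 20 µM; growth read once vehicle control cultures reached saturation at 30 °C; 1 = growth at the plate median or of vehicle wells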
Conditions: S. cerevisiae deletion strains, growth OD, locus YPR135W, strain CTF4
Among all 5,500 compounds or so, about 2,000 (36%) were called active. Another 18% or so got no clear call; they are omitted. No stated cut-off is given here; in the data, active means normalized growth mostly below about 0.91 (no sharp cut-off); inconclusive means no clear call, values can overlap the other calls; inactive means mostly above about 0.92. This is one part of the list.
Classes to choose from: True for active, False for inactive

// below: answered compounds
CN(C)c1ccc(-c2n[nH]c(=O)c3ccccc23)cc1[N+](=O)[O-] :: False
c1ccc(-c2ccc(-c3csc(-c4cccnc4)n3)cc2)cc1 :: False
CCN1CN=C(SCc2ccc(Br)cc2)NC1 :: False
CCCN(CCC)S(=O)(=O)c1ccc(C(=O)NCC(=O)O)cc1 :: False

Q: State the result this test recorded for O=C1CCc2cccc3cccc1c23 .
Result: False

Q: State the result this test recorded for Cc1nn(-c2ccccc2)nc1-c1nnc(-c2ccc(Cl)cc2)o1 .
Result: False

Q: State the result this test recorded for O=c1oc2ccccc2cc1[N+](=O)[O-] .
Result: True

Q: State the result this test recorded for Nc1ccc(Oc2ccc(Cl)cc2C2CCCCC2)nc1 .
Result: True

Q: State the result this test recorded for O=C1C2C3C=CC(C3)C2C(=O)N1c1ccc(F)c(F)c1 (stereo unspecified) .
Result: False

Q: State the result this test recorded for O/N=C(/CNC(c1ccccc1)(c1ccccc1)c1ccccc1)c1ccccc1 .
Result: False

Q: State the result this test recorded for N/C(=N/OC(=O)Nc1ccccc1)c1ccc(C2SCCS2)cc1 .
Result: True

Q: State the result this test recorded for COC(=O)c1ccsc1N .
Result: False

Q: State the result this test recorded for CCOC(=O)C(c1ccccc1)C(Nc1ccc(Cl)c(Cl)c1)c1ccccn1 (stereo unspecified) .
Result: False

Q: State the result this test recorded for Cc1onc2c(=O)n(-c3ccccc3)nc(-c3ccccc3)c12 .
Result: False

Q: State the result this test recorded for CCOC(=O)c1sc2sc(C(=O)c3ccc(Cl)cc3)c(C)c2c1C .
Result: False

Q: State the result this test recorded for Cc1cc(Cl)ccc1Oc1ccc(N)cn1 .
Result: True
